B1: ZBED2 (parent)
chain: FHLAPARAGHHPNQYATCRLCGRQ

# Variants of: B1
# Assay method text: protein stability index of a GFP-peptide fusion (GPS, HEK-293T) (PSI 1-6); higher = more stable;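 also: lentivirally expressed fusions sorted by FACS into six bins by GFP to DsRed ratio, PSI derived from sequencing read proportions per bin multiplied by bin number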
# Study conditions: c terminus: a fixed tail appended
Property: protein stability index
Give only the figure.

Answered examples (4):
FHLAPARAGHHPNQYATCRFCGRQ [L20F] ... 2.4
FHLAPARRGHHPNQYATCRLCGRQ [A8R] ... 1.3
FHLAPARAGHIPNQYATCRLCGRQ [H11I] ... 1.33
FHLAPARAGHHPNQYSTCRLCGRQ [A16S] ... 1.82

Give its protein stability index value. Item: FHLWPARAGHHPNQYATCRLCGRQ [A4W]
2.73

// protein stability index lookup, key: FHLAPARAGHHPNQYATCRLCGRG [Q24G]
2.41
